Ref: the RNAGym collection of RNA variant scans (doi:10.7554/elife.90254)

B1: LINE1-mini (parent)
chain: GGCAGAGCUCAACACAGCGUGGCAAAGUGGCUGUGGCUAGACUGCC

Variants of: B1
Experiment: self-cleavage, relative activity (ratio to wild type); higher = more cleavage; in vitro, sequencing; the parent is a self-cleaving ribozyme
Short version: self-cleavage at least 0.2 is true, less is false.

Is reported self-cleavage greater than or equal to 0.2 here: GGCAAAGCUCAACACAGGGUGGCAAAGUGGCUGUGGCUAGACUGCC
false

Also need GGCAGAGCUCAACACAGCGUGGUAAAGUGACUGUGGCUAGACUGCC , thanks.
true

Also need GGCAGAGCUCAAAACAGCGUGGCAAAGUGGCUGUGGCUAGACUGGC , thanks.
false

Also need GGCAGAGCUCAAAACAGCGCGGCAAAGUGGCUGUGGCUAGACUGCC , thanks.
false

Also need GGCAGAGCUCAACAAAGCGUGGCAAAGUGGCUGUGGCUAGACAGCC , thanks.
false

Also need GGCAGAGCUCAAGACUGCGUGGCAAAGUGGCUGUGGCUAGACUGCC , thanks.
false

Also need GGCAGAGCUCAACACAGCGUGGCAAAGUGGCUGUGGCUAGGAUGCC , thanks.
false

Also need GGCAAAGCUCUACACAGCGUGGCAAAGUGGCUGUGGCUAGACUGCC , thanks.
false

Also need GGCAGAGCUCAACACAGCGCGGCAAAGUGGCUGUGGGUAGACUGCC , thanks.
true

Also need GGCAGAGCUCACCACUGCGUGGCAAAGUGGCUGUGGCUAGACUGCC , thanks.
false

Also need GGUAGAGCUCAACACAGCGUGGCAAAGUGGCUGUGGCUAGACUGCC , thanks.
true

Also need GGCAGAGAUCAACACAACGUGGCAAAGUGGCUGUGGCUAGACUGCC , thanks.
true

Also need GGCAGAGCUCAACACAGAGUGGCAAAGUGGAUGUGGCUAGACUGCC , thanks.
false

Also need GCCAGAGCUCAACACAGCGUGGCAAAGUGGCUGUGACUAGACUGCC , thanks.
true

Also need GGCAGAGCUCAACACAGCGUGGCAAAGUGGCUGUUGCUAGACUUCC , thanks.
false

Also need GGCAGAGCACAACACAGAGUGGCAAAGUGGCUGUGGCUAGACUGCC , thanks.
false

Also need GAUAGAGCUCAACACAGCGUGGCAAAGUGGCUGUGGCUAGACUGCC , thanks.
true

Also need GGCAGAGCUCAACAGAGCGUGGCAAAGUGGCUGUGGCUAGACUGCC , thanks.
false

Also need GGCAGAGCUCAACACAGCGUGGCAGAAUGGCUGUGGCUAGACUGCC , thanks.
true

Also need GGCAGAGCUCAACACAGCGUGGCAAAUUGGGUGUGGCUAGACUGCC , thanks.
true

Also need GGCAGAGCAUAACACAGCGUGGCAAAGUGGCUGUGGCUAGACUGCC , thanks.
false
